Recorded values, source PubChem BioAssay.

We begin with a simple list: items and their reported viability.
assay: SK-BR-3 cell growth inhibitors, pilot screen, 24 h, human (AID 572); details: SK-BR-3 viability, CellTiter-Glo luminescence, at 10 µM, active compounds read low;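 further: compound exposure lasted between 18 and 24 h rather than exactly 24 h; 100% = carrier-treated control wells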
measurement_name: viability (%)

>>> assay_result("O=C(c1cccc(C(=O)N2CCN(c3ccccc3)CC2)c1)N1CCN(c2ccccc2)CC1")
95.5
>>> assay_result("Cc1ccc(O)c(NC(=O)COc2cc(C)ccc2C)c1")
93.5
>>> assay_result("COCCNC(=O)C(c1ccncc1)N(C(=O)Cn1nnc2ccccc21)c1ccc(OC)cc1 (stereo not drawn)")
96
>>> assay_result("CCOc1ccccc1-n1c(SCC(=O)NCc2ccco2)nnc1-c1ccncc1")
87
>>> assay_result("N#C/C(C(=O)N1CCOCC1)=C1/SC(Cc2ccccc2)C(=O)N1c1ccccc1 (stereo not drawn)")
92
>>> assay_result("CCOCCn1cnc2sc(C(=O)NCC(=O)OCC)c(C)c2c1=O")
95.5
>>> assay_result("O=c1c2c(-c3ccccc3)csc2nc2n1CCC2")
81
>>> assay_result("O=C(CN1C(=O)NC2(CCCCCC2)C1=O)N1CCC(Cc2ccccc2)CC1")
87
>>> assay_result("COc1ccc(Oc2c(C)oc3cc(OC(=O)N4CCOCC4)ccc3c2=O)cc1")
91
>>> assay_result("Cc1nnc(NC(=O)Nc2cccc(Cl)c2)s1")
86
>>> assay_result("CCn1c(=S)ccc2ccc(OC)cc21")
88.5
>>> assay_result("C=C(C)c1cccc(C(C)(C)NC(=O)Nc2ncccn2)c1")
97.5
>>> assay_result("C[C@@H]1C[C@H](O)c2cc(Cl)ccc2N1")
104
>>> assay_result("COc1ccc2[nH]c(=O)c(CN(Cc3cccs3)S(=O)(=O)c3cccc4nsnc34)cc2c1")
96.5
>>> assay_result("Cc1ccccc1NC(=O)CSc1nc(N)c(C#N)c(-c2cccs2)c1C#N")
115
>>> assay_result("CCOC(=O)C1(C)NC(c2ccc(OC)c(OC)c2)C2C(=O)N(CC)C(=O)C21 (stereo not drawn)")
96.5
>>> assay_result("COc1ccccc1C(=O)N1CCN(C(=O)c2ccncc2)CC1")
122
>>> assay_result("COc1ccc(Br)cc1CNC(=O)C1CCCN(S(C)(=O)=O)C1 (stereo not drawn)")
78
>>> assay_result("CC1(C)CNC(=O)c2sc(N3CCOCC3)nc2C1")
114
>>> assay_result("CC1(C(=O)CSc2nc3ccccc3s2)CCC(=O)O1 (stereo not drawn)")
107
>>> assay_result("c1c2c(cc3sc(N4CCCCC4)nc13)OCCO2")
98
>>> assay_result("Cc1cc2c(cc1C)-c1nnnn1C(C)(C)C2")
110
>>> assay_result("CCOC(=O)c1ccc(NC(=O)c2ccc(NS(C)(=O)=O)cc2)cc1")
97

----------
We begin with a simple list: items and their reported viability.
assay: HUVEC growth inhibition – cell-based, human, primary screen (AID 575); settings: HUVEC proliferation, CellTiter-Glo luminescence, 72 h; at 10 µM; active compounds read low;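 further: 100% = median of untreated cell wells with 0.1% DMSO on each plate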
measurement_name: viability (%)

>>> assay_result("c1ccc(-n2ncc3c(N4CCCCC4)ncnc32)cc1")
59.4
>>> assay_result("O=C(Nc1ccc(F)cc1F)NC1CC(=O)N(Cc2ccccc2)C1 (stereo unspecified)")
109
>>> assay_result("CCCN(Cc1cc2cc(C)ccc2[nH]c1=O)C(=O)c1cccc(OC)c1")
70.6
>>> assay_result("CC1(C)CC(=O)C2=C(C1)OC(N)=C(C#N)C2C1CC=CCC1 (stereo unspecified)")
91.4
>>> assay_result("Cc1cc(C(=O)N2CCN(C/C=C/c3ccccc3)CC2)no1")
93.8
>>> assay_result("CC(C)=CC/C=C1\\CCC(C(=O)O)C(C(=O)O)C1 (stereo unspecified)")
91.6
>>> assay_result("CCn1cc(C(=O)Nc2cc3c(cc2NC(C)=O)OCCO3)c(=O)c2ccc(C)nc21")
106
>>> assay_result("Cc1cc(=O)n(C)c(=O)n1CCCCCN1CCCC1")
100
>>> assay_result("Cc1[nH]c(=O)[nH]c(=O)c1S(=O)(=O)N1CCN(c2cccc(Cl)c2)CC1")
82.6
>>> assay_result("O=C(Nc1ccc(N2CCOCC2)c(F)c1)c1ccncc1")
114
>>> assay_result("CCOC(=O)c1[nH]c2ccc(Br)cc2c1NC(=O)CNC")
101
